# Study system: FGFR2 (N549H) (Homo sapiens, UniProt P21802, N549H)
# Construct: purchased Millipore 14-742
# Sequence (P21802 22-821 N549H): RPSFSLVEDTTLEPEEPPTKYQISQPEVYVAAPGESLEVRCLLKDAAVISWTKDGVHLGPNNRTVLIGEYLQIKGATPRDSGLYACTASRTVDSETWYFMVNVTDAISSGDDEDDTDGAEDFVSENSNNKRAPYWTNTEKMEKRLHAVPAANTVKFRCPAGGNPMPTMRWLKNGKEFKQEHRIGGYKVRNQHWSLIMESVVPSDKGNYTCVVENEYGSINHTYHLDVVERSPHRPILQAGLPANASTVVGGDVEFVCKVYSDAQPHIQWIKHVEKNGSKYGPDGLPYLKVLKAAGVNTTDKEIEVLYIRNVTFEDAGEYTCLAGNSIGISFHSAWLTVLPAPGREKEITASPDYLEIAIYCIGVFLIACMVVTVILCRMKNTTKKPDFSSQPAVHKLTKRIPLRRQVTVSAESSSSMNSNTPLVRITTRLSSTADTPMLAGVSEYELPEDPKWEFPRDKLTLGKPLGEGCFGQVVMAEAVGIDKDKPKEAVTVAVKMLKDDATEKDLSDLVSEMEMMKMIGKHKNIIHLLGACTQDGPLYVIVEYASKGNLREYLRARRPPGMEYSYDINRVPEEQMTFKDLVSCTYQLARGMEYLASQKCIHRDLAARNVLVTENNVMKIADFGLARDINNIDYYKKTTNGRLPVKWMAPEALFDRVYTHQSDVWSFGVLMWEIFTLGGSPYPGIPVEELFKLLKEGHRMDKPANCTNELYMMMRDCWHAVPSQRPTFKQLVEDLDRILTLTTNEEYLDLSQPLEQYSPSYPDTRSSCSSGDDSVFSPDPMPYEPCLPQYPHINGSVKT
# Method summary: fluorescent ELISA assay for inhibitors of FGFR2 kinase
# Type: biochemical
# Condition info: Pyk2 peptide substrate, 60 minutes
Experimental readout: IC50 (nM)

[
  {
    "Compound": "Nc1nc(NC2Cc3ccccc3N(S(=O)(=O)c3ccc(F)cc3Cl)C2)c2cn[nH]c2n1 (centres unmarked)",
    "IC50 (nM)": 410
  }
]

a: Nc1nc(NC2Cc3ccccc3N(S(=O)(=O)c3ccc(F)c(Cl)c3)C2)c2cn[nH]c2n1 (centres unmarked)
b: Cc1cccc(CN2CC(Nc3nc(N)nc4[nH]ncc34)Cc3ccccc32)c1 (centres unmarked)
c: Nc1nc(NC2Cc3ccccc3N(Cc3ccc(Cl)cc3Cl)C2)c2cn[nH]c2n1 (centres unmarked)
d: Nc1nc(NC2Cc3ccccc3N(CCc3ccccc3)C2)c2cn[nH]c2n1 (centres unmarked)
**Q:** Sort (4 compounds) by IC50: min first. In plain terms: list the labels in the order you were asked to.
**A:** d, a, b, c
(d: 170 nM, a: 270 nM, b: 1670 nM, c: 3060 nM)

A: Nc1nc(NC2Cc3ccccc3N(Cc3ccc(F)c(F)c3)C2)c2cn[nH]c2n1 (centres unmarked)
B: Nc1nc(NC2Cc3ccccc3N(S(=O)(=O)c3ccc(Cl)cc3Cl)C2)c2cn[nH]c2n1 (centres unmarked)
**Q:** Select one: A or B . Criterion: greater recorded IC50. Please indicate the selected item by its label.
**A:** A
(A: 1330 nM, B: 230 nM)

---

The following compounds are listed with their measured melting point values.

Study these solved cases before continuing.
[
  {
    "Compound": "Nc1nc(NC2Cc3ccccc3N(C(=O)c3ccccc3)C2)c2cn[nH]c2n1 (centres unmarked) [Compound 12]",
    "Experimental readout": "melting point",
    "Readout value": "155 to 164 °C"
  },
  {
    "Compound": "Nc1nc(N[C@@H]2Cc3ccccc3N(Cc3ccc(F)cc3)C2)c2cn[nH]c2n1 [Compound 9]",
    "Experimental readout": "melting point",
    "Readout value": "140 to 143 °C"
  },
  {
    "Compound": "Nc1nc(NC2Cc3ccccc3N(c3ccccc3)C2)c2cn[nH]c2n1 (centres unmarked) [Compound 11]",
    "Experimental readout": "melting point",
    "Readout value": "88 to 92 °C"
  },
  {
    "Compound": "Nc1nc(NC2Cc3ccccc3N(Cc3ccc(F)cc3F)C2)c2cn[nH]c2n1 (centres unmarked) [Compound 1]",
    "Experimental readout": "melting point",
    "Readout value": "110 to 114 °C"
  },
  {
    "Compound": "Nc1nc(NC2Cc3ccccc3N(Cc3ccc(Cl)cc3Cl)C2)c2cn[nH]c2n1 (centres unmarked) [Compound 4]",
    "Experimental readout": "melting point",
    "Readout value": "170 to 174 °C"
  },
  {
    "Compound": "Nc1nc(NC2Cc3ccccc3N(CCc3ccccc3)C2)c2cn[nH]c2n1 (centres unmarked) [Compound 2]",
    "Experimental readout": "melting point",
    "Readout value": "117 to 122 °C"
  },
  {
    "Compound": "Nc1nc(NC2Cc3ccccc3N(Cc3cccc(C(F)(F)F)c3)C2)c2cn[nH]c2n1 (centres unmarked) [Compound 5]",
    "Experimental readout": "melting point",
    "Readout value": "89 to 94 °C"
  }
]

Below: the item to evaluate.
**Q:** Reported melting point for Nc1nc(NC2Cc3ccccc3N(Cc3cccc(-c4ccccc4)c3)C2)c2cn[nH]c2n1 (centres unmarked) [Compound 224] : what is it?
**A:** 128 to 132 °C

---

Experimental readout: melting point

Study these solved cases before continuing.
[
  {
    "Molecule": "Nc1nc(NC2Cc3ccccc3N(S(=O)(=O)c3ccc(Cl)cc3Cl)C2)c2cn[nH]c2n1 (stereo not drawn) [Compound 14]",
    "Readout value": "153 to 163 °C"
  },
  {
    "Molecule": "Nc1nc(N[C@H]2Cc3ccccc3N(Cc3ccc(F)cc3)C2)c2cn[nH]c2n1 [Compound 8]",
    "Readout value": "78 to 80 °C"
  }
]

Below: the item to evaluate.
**Q:** Reported melting point for Nc1nc(NC2Cc3ccccc3N(C(=O)c3ccc(Cl)cc3Cl)C2)c2cn[nH]c2n1 (stereo not drawn) [Compound 13] : what is it?
**A:** 165 to 173 °C

---

# Study system: FGFR2 (N549H) (Homo sapiens, UniProt P21802, N549H)
# Method summary: fluorescent ELISA assay for inhibitors of FGFR2 kinase
# Condition info: Pyk2 peptide substrate, 60 minutes
Experimental readout: IC50 (µM)

Study these solved cases before continuing.
[
  {
    "Compound": "Cc1ccccc1CN1CC(Nc2nc(N)nc3[nH]ncc23)Cc2ccccc21 (stereo not drawn)",
    "Experimental readout": "IC50",
    "Unit of measure": "µM",
    "Readout value": 16.2
  },
  {
    "Compound": "COc1ccccc1CN1CC(Nc2nc(N)nc3[nH]ncc23)Cc2ccccc21 (stereo not drawn)",
    "Experimental readout": "IC50",
    "Unit of measure": "µM",
    "Readout value": 22.3
  },
  {
    "Compound": "Nc1nc(NC2Cc3ccccc3N(C(=O)c3ccc(Cl)cc3Cl)C2)c2cn[nH]c2n1 (stereo not drawn)",
    "Experimental readout": "IC50",
    "Unit of measure": "µM",
    "Readout value": 17.9
  },
  {
    "Compound": "Nc1nc(NC2Cc3ccccc3N(CCc3ccc(Cl)cc3Cl)C2)c2cn[nH]c2n1 (stereo not drawn)",
    "Experimental readout": "IC50",
    "Unit of measure": "µM",
    "Readout value": 7.83
  }
]

a: Nc1nc(NC2Cc3ccccc3N(C(=O)c3ccccc3)C2)c2cn[nH]c2n1 (stereo not drawn)
b: Nc1nc(NC2Cc3ccccc3N(S(=O)(=O)c3cc(F)ccc3F)C2)c2cn[nH]c2n1 (stereo not drawn)
**Q:** Select one: a or b . Criterion: greater recorded IC50. Please indicate the selected item by its label.
**A:** a

---

# Study system: FGFR2 (N549H) (Homo sapiens, UniProt P21802, N549H)
# Method summary: fluorescent ELISA assay for inhibitors of FGFR2 kinase
# Condition info: Pyk2 peptide substrate, 60 minutes
pIC50: −log10 of the molar value.
Experimental readout: pIC50

Study these solved cases before continuing.
[
  {
    "Compound": "Nc1nc(NC2Cc3ccccc3N(Cc3ccccc3)C2)c2cn[nH]c2n1 (centres unmarked) [Compound 125]",
    "pIC50": 4.77
  },
  {
    "Compound": "Nc1nc(NC2Cc3ccccc3N(S(=O)(=O)c3ccc(Cl)c(Cl)c3)C2)c2cn[nH]c2n1 (centres unmarked) [Compound 39]",
    "pIC50": 6.06
  },
  {
    "Compound": "Nc1nc(N[C@H]2Cc3ccccc3N(Cc3ccc(F)cc3)C2)c2cn[nH]c2n1 [Compound 8]",
    "pIC50": 4.96
  },
  {
    "Compound": "Nc1nc(NC2Cc3ccccc3N(S(=O)(=O)c3cccc(C(F)(F)F)c3)C2)c2cn[nH]c2n1 (centres unmarked) [Compound 19]",
    "pIC50": 5.93
  },
  {
    "Compound": "Nc1nc(NC2Cc3ccccc3N(S(=O)(=O)c3ccccc3Cl)C2)c2cn[nH]c2n1 (centres unmarked) [Compound 52]",
    "pIC50": 5.92
  }
]

A: Nc1nc(NC2Cc3ccccc3N(Cc3cccc(Cl)c3)C2)c2cn[nH]c2n1 (centres unmarked) [Compound 126]
B: COc1ccc(S(=O)(=O)N2CC(Nc3nc(N)nc4[nH]ncc34)Cc3ccccc32)cc1 (centres unmarked) [Compound 42]
C: Nc1nc(NC2Cc3ccccc3N(S(=O)(=O)c3ccc(Br)cc3)C2)c2cn[nH]c2n1 (centres unmarked) [Compound 37]
D: Nc1nc(N[C@@H]2Cc3ccccc3N(Cc3ccc(F)cc3)C2)c2cn[nH]c2n1 [Compound 9]
**Q:** Highest pIC50 first, then in falling order down to the smallest. In plain terms: list the labels in the order you were asked to.
**A:** D, A, C, B
(D: 6.66, A: 5.92, C: 5.44, B: 4.80)

---

# Study system: FGFR2 (N549H) (Homo sapiens, UniProt P21802, N549H)
# Method summary: fluorescent ELISA assay for inhibitors of FGFR2 kinase
# Condition info: Pyk2 peptide substrate, 60 minutes
Experimental readout: IC50

Study these solved cases before continuing.
[
  {
    "Compound": "Nc1nc(NC2Cc3ccccc3N(S(=O)(=O)c3ccc(NC(=O)Nc4ccc(Cl)c(C(F)(F)F)c4)cc3)C2)c2cn[nH]c2n1 (stereo not drawn)",
    "Readout value": "> 0.3 µM"
  },
  {
    "Compound": "CC(C)c1ccc(S(=O)(=O)N2CC(Nc3nc(N)nc4[nH]ncc34)Cc3ccccc32)cc1 (stereo not drawn)",
    "Readout value": "> 30 µM"
  }
]

Below: the item to evaluate.
**Q:** Reported IC50 for Nc1nc(NC2Cc3ccccc3N(S(=O)(=O)c3c(F)cccc3F)C2)c2cn[nH]c2n1 (stereo not drawn) : what is it?
**A:** 13 µM
